- System: RCC4/VHL cells
- test_summary: XTT assay, RCC4/VHL versus RCC4 cells (selectivity ratio)
- Assay type: cell-based
- recorded_conditions: Table 1; selectivity ratio, IC50 in RCC4/VHL cells/IC50 in RCC4 cells
Each entry gets rule not met if its Ratio stays under 3, and rule met if its Ratio is 3 or above.

Some solved cases for reference:
- smiles_record: "Oc1cccc(Nc2nc(-c3ccncc3)cs2)c1"
  class_label: "rule met"
- smiles_record: "c1cc(-c2csc(Nc3ccc4c(c3)CCC4)n2)ccn1"
  class_label: "rule met"
- smiles_record: "CN(C)CCOc1ccc(Nc2nc(-c3ccncc3)cs2)cc1"
  class_label: "rule not met"
- smiles_record: "COc1cccc(Nc2nc(-c3ccncc3)cs2)c1"
  class_label: "rule met"
- smiles_record: "Oc1ccc(Nc2nc(-c3ccccn3)cs2)cc1"
  class_label: "rule not met"
- smiles_record: "Cc1cccc(Nc2nc(-c3ccncc3)c(C)s2)c1"
  class_label: "rule met"
- smiles_record: "Cc1cccc(Nc2nc(-c3ccncc3)c(CO)s2)c1"
  class_label: "rule not met"
- smiles_record: "Cc1cccc(N(C)c2nc(-c3ccncc3)cs2)c1"
  class_label: "rule not met"
- smiles_record: "Cc1ccc(Nc2nc(-c3ccncc3)cs2)cc1"
  class_label: "rule met"
- smiles_record: "Cc1cccc(Nc2nc(-c3ccccn3)cs2)c1"
  class_label: "rule not met"

Threshold query (Ratio >= 3) on O=P(O)(O)Oc1cccc(Nc2nc(-c3ccncc3)cs2)c1
rule not met

Threshold query (Ratio >= 3) on CC(=O)c1cccc(Nc2nc(-c3ccncc3)cs2)c1
rule met

Threshold query (Ratio >= 3) on CCc1cccc(Nc2nc(-c3ccncc3)cs2)c1
rule met

Threshold query (Ratio >= 3) on Cc1cccc(Nc2nc(-c3ccncc3)c(CN(C)C)s2)c1
rule not met

---

- System: RCC4/VHL cells
- test_summary: XTT assay, RCC4/VHL versus RCC4 cells (selectivity ratio)
- Format: cell-based
- recorded_conditions: Table 1; selectivity ratio, IC50 in RCC4/VHL cells/IC50 in RCC4 cells
Parameter: Ratio. Scope: all listed entries.
Respond using a number only.

- smiles_record: "Cc1cccc(Nc2nc(-c3ccncc3)c(CN3CCOCC3)s2)c1"
  system: "RCC4/VHL cells"
  measured_parameter: "Ratio"
  experimental_value: 4.8

// switching to the query molecule
Which Ratio value is on record for COc1ccc(Nc2nc(-c3ccncc3)cs2)cc1 ?
3.6

---

Parameter: Ratio. Scope: all listed entries.
- Tested on: RCC4/VHL cells
- test_summary: XTT assay, RCC4/VHL versus RCC4 cells (selectivity ratio)
- Assay type: cell-based
- recorded_conditions: Table 1; selectivity ratio, IC50 in RCC4/VHL cells/IC50 in RCC4 cells
- Procedure: Cell Viability and XTT assays. For cell viability, 100,000 cells were plated in a 12-well plate. The following day, 1.25 μM STF-62247 was added in the presence or absence of 1 mM 3-MA for 24 hours at 37° C. Cells were trypsinized and counted by trypan blue exclusion. For XTT assays, 5000 RCC4 with and without VHL cells or 2,500 SN12C with and without VHL shRNA cells were plated in 96-well plates. […] Metabolism of XTT was quantified by measuring the absorbance at 450 nm on a plate reader. […]
Respond using a number only.

Reference set (3 entries):
- smiles_record: "CCN(CC)Cc1sc(Nc2cccc(C)c2)nc1-c1ccncc1"
  experimental_value: 1.4
- smiles_record: "OCc1sc(Nc2ccc3c(c2)CCC3)nc1-c1ccncc1"
  experimental_value: 1.4
- smiles_record: "Cc1sc(Nc2ccc3c(c2)CCC3)nc1-c1ccncc1"
  experimental_value: 1.5

Request: Ratio, test system RCC4/VHL cells, entry CN(C)CCc1ccc(Nc2nc(-c3ccncc3)cs2)cc1
1.2

Request: Ratio, test system RCC4/VHL cells, entry Cc1cccc(Nc2nc(-c3ccncc3)c(CCCN3CCOCC3)s2)c1
1.6

---

Parameter: melting point. Scope: all listed entries.

- smiles_record: "COc1cc(Nc2nc(-c3ccncc3)cs2)cc(OC)c1OC"
  melting point: "207 to 209 °C"
- smiles_record: "Cc1cccc(C(=O)Nc2nc(-c3ccncc3)cs2)c1"
  melting point: "201 to 202 °C"
- smiles_record: "Cc1cccc(Nc2nc(-c3ccncc3)co2)c1"
  melting point: "201 to 204 °C"
- smiles_record: "CCOC(=O)c1sc(Nc2ccc3c(c2)CCC3)nc1-c1ccncc1"
  melting point: "203 to 205 °C"
- smiles_record: "COC(=O)CCc1sc(Nc2cccc(C)c2)nc1-c1ccncc1"
  melting point: "121 to 123 °C"
- smiles_record: "Cc1cccc(Nc2nc(-c3ccnc(C)c3)cs2)c1"
  melting point: "198 to 200 °C"

Which melting point value is on record for Cc1cccc(Nc2nc(-c3ccncc3)c[nH]2)c1 ?
170 to 171 °C

Which melting point value is on record for O=[N+]([O-])c1ccc(Nc2nc(-c3ccncc3)cs2)cc1 ?
> 290 °C

Which melting point value is on record for N#Cc1cccc(Nc2nc(-c3ccncc3)cs2)c1 ?
252 to 253 °C

Which melting point value is on record for Cc1cccc(CNc2nc(-c3ccncc3)cs2)c1 ?
192 to 194 °C

---

Parameter: melting point. Scope: all listed entries.

Reference set (4 entries):
- compound: "Cc1cccc(Nc2nc(-c3cc[n+]([O-])cc3)cs2)c1 [Compound 188]"
  measured_parameter: "melting point"
  experimental_value: "162 to 164 °C"
- compound: "Cc1ccccc1Nc1nc(-c2ccncc2)cs1 [Compound 111]"
  measured_parameter: "melting point"
  experimental_value: "158 to 160 °C"
- compound: "Cc1cccc(Nc2nc(-c3ccnc(N(C)C)c3)cs2)c1 [Compound 199]"
  measured_parameter: "melting point"
  experimental_value: "148 to 150 °C"
- compound: "FC(F)(F)c1ccccc1Nc1nc(-c2ccncc2)cs1 [Compound 117]"
  measured_parameter: "melting point"
  experimental_value: "170 to 172 °C"

Which melting point value is on record for COc1cc(Nc2nc(-c3ccncc3)cs2)cc(OC)c1 [Compound 57] ?
229 to 231 °C

Which melting point value is on record for O=[N+]([O-])c1ccccc1Nc1nc(-c2ccncc2)cs1 [Compound 119] ?
127 to 130 °C

---

Parameter: melting point. Scope: all listed entries.

- smiles_record: "Cc1cccc(Nc2nc(-c3ccnc(N4CCN(C)CC4)c3)cs2)c1"
  experimental_value: "141 to 143 °C"
- smiles_record: "Cc1cccc(N(CCO)c2nc(-c3ccncc3)cs2)c1"
  experimental_value: "149 to 151 °C"
- smiles_record: "COc1ccc(C(=O)Nc2nc(-c3ccncc3)cs2)cc1"
  experimental_value: "271 to 274 °C"
- smiles_record: "Fc1cccc(Nc2nc(-c3ccncc3)cs2)c1"
  experimental_value: "229 to 230 °C"
- smiles_record: "Cc1cccc(Nc2nc(-c3ccncc3)c(C=O)s2)c1"
  experimental_value: "220 to 223 °C"
- smiles_record: "O=[N+]([O-])c1cccc(Nc2nc(-c3ccncc3)cs2)c1"
  experimental_value: "244 to 247 °C"
- smiles_record: "O=C(Nc1nc(-c2ccncc2)cs1)c1ccccc1"
  experimental_value: "241 to 243 °C"
- smiles_record: "N#Cc1ccc(Nc2nc(-c3ccncc3)cs2)cc1"
  experimental_value: "> 300 °C"

// switching to the query compound
Which melting point value is on record for COc1ccc(Nc2nc(-c3ccncc3)cs2)cc1O ?
230 to 232 °C

---

- Test system: RCC4, RCC4/VHL, SN12C and SN12C-VHL shRNA cells
- test_summary: Acidic vesicle organelles with acridine orange (FACS)
- Assay type: cell-based
- recorded_conditions: 1.25 μM, VHL-deficient versus wild-type VHL cells
measured_parameter: acridine orange staining / amount of AVOs

- smiles_record: "Cc1cc(Nc2nc(-c3ccncc3)cs2)ccc1O"
  experimental_value: "not influenced"
- smiles_record: "Oc1cccc(Nc2nc(-c3ccncc3)cs2)c1"
  experimental_value: "not influenced"

---

- Tested on: RCC4/VHL cells
- test_summary: XTT assay, RCC4/VHL versus RCC4 cells (selectivity ratio)
- Format: cell-based
- recorded_conditions: Table 1; selectivity ratio, IC50 in RCC4/VHL cells/IC50 in RCC4 cells
measured_parameter: Ratio
Respond using a number only.

- compound: "CC(C)c1cccc(Nc2nc(-c3ccncc3)cs2)c1 [Compound 9]"
  Ratio: 1.4
- compound: "CCN(c1cccc(C)c1)c1nc(-c2ccncc2)cs1 [Compound 96]"
  Ratio: 0.6

Which Ratio value is on record for Cc1ccc(Nc2nc(-c3ccncc3)c(CO)s2)cc1 [Compound 75] ?
1.2

Which Ratio value is on record for Clc1cccc(Nc2nc(-c3ccncc3)cs2)c1 [Compound 17] ?
5

Which Ratio value is on record for Cc1cccc(Nc2nc(-c3ccncc3)c(CN3CCCCC3)s2)c1 [Compound 85] ?
1.9

Which Ratio value is on record for CC(=O)c1ccc(Nc2nc(-c3ccncc3)cs2)cc1 [Compound 131] ?
3.1

Which Ratio value is on record for Cc1cccc(Nc2nc(-c3ccncc3)cs2)c1 [Compound 5] ?
19

Which Ratio value is on record for Cc1cccc(Nc2nc(-c3ccncc3)c(CCCO)s2)c1 [Compound 81] ?
3.7
